# Tested on: LPETG (Abz-LPETGK(Dnp)-CONH2)
# Experimental Protocol: In vitro sortase kinetics HPLC assay, LPETG substrate
# Type: biochemical
# Condition Label: LPETG substrate
Experimental Endpoint: KH,LPETG (µM)
Could you give me the number in µM? Just the number is fine.

Reported KH,LPETG ( eSrtA(2A-9): P94R, S102C, A104H, E105D, K138P, K152I, N160K, K162H, T164N, D165A, K173E, I182V, K190E, T196S (protein) QAKPQIPKDKSKVAGYIEIPDADIKEPVYPGPATREQLNRGVCFHDENESLDDQNISIAGHTFIDRPNYQFTNLKAAKPGSMVYFKVGNETRIYKMTSIRKVHPNAVEVLDEQEGKDKQLTLVTCDDYNEETGVWESRKIFVATEVK ) = 18.7
